biological target: human 5-HT4b receptor (Homo sapiens, UniProt Q13639); construct: expressed in transfected cells; host or cells: CHO cells (G418 selection); test: Test Example 2: Serotonin 4 (5-HT4) receptor agonist activity assay, cAMP HTRF in CHO cells (Table 97); type: cell-based; details: concentration showing 50% of IA; cAMP in CHO cells expressing human 5-HT4b receptor; mean value
Sequence (Q13639 whole entry): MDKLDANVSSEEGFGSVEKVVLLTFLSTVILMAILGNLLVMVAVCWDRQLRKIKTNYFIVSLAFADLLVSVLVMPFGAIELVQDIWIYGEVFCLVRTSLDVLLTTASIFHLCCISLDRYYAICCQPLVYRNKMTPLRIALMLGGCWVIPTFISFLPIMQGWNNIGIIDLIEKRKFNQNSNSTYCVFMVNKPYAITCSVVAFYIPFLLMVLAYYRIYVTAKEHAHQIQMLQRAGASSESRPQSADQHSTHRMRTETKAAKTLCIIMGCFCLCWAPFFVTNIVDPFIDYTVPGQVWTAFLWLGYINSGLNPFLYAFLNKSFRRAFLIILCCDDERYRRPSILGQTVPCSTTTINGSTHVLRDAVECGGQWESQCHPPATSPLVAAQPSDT
Structures can show the parent of a compound that is named as a salt.
Exercise: state measured EC50 for each of the compounds provided.
Give bare numbers, in µM.

[
  {
    "COMPOUND": "CCc1nn(-c2noc(C3CCN(CC4CCOCC4)CC3)n2)c2cc(F)ccc12",
    "EC50 (µM)": 0.0121
  }
]

Each compound below has a recorded value; state its EC50.
1. CCc1nn(-c2noc(C3CCN(C(C)CC)CC3)n2)c2ccccc12 (stereo not shown) [Example 101, trifluoroacetate]
2. CCc1nn(-c2noc(C3CN(C4CCN(C(=O)OC)CC4)C3)n2)c2ccccc12

1. 0.0089
2. 0.0607

Recall and state the measured EC50 for CCc1nn(-c2noc(C3CCN(C4CCN(C(C)=O)CC4)CC3)n2)c2cc(F)ccc12 [Example 228, hydrochloride] .
0.0082

Values were extracted from patent US20140057895A1.
